measurement_target: T1, cynomolgus TNFR2 (Sino 90102-C08H) (cynomolgus, UniProt A0A2K5VET2 132-366)
T1 construct: also called CynoTNFR2 (His tag)
T1 sequence: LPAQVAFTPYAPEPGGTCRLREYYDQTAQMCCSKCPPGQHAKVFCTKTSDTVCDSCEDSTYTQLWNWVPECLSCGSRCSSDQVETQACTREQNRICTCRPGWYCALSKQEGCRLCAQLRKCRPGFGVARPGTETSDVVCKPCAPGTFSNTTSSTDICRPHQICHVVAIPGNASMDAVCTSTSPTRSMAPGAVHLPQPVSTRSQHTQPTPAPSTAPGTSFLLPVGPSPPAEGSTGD
test_description: ELISA, coated antigen 0.5 ug/ml, antibody 28 ng/ml
assay_endpoint: ELISA OD (OD)

>>> reported("TNFR2 antibody #365 (antibody, V domains shown) VH: EVQLQESGPGLVQPSQSLSITCTVSGFSLTSYGVHWVRQSPGKGLEWLGLIWSDGSPDYSAAFISRLSINKDNSKSQVFFKMNSLQADDTAIYYCARNDDGGDYVMDYWGQGTTVTVSS VL: EIVLTQSPALMSASPGEKVTMTCSASSSVSYMYWYQQKPRSSPKPWIYLTSNLASGVPARFSGSGSGTSYSLTISSMEAEDAATYYCQQWTSNPLTFGAGTKLEIK")
3.15
